Each recorded value in this set is attributed to PubChem BioAssay AID2060607.

# Tested on: 876862-298-R-J1-PDC complex spheroids, viability % test/control
# experiment_description: Anticancer human tumor 876862-298-R-J1-PDC patient-derived endometrial carcinoma cell line growth inhibition [CLK]
# protocol_conditions: second compound 1 µM; first compound 1 µM; active compounds read low
Quick list: viability, T/C per entry.
Reply numerically in %, unit not repeated.

INSERT INTO assay_data (compound, experimental_value) VALUES
  ('COc1c(OCCCN2CCOCC2)ccc2c3n(c(=NC(=O)c4cnc(N)nc4)nc12)CCN3 + CNC(=O)c1ccc(Nc2nc(OC3CCCC3)c3c(-c4ccc5nc(C)oc5c4)c[nH]c3n2)c(OC)c1', 12.6);

Moving on to the next compound.
Give viability, T/C for CCc1c2c(nc3ccc(O)cc13)-c1cc3c(c(=O)n1C2)COC(=O)[C@]3(O)CC + CNC(=O)c1ccc(Nc2nc(OC3CCCC3)c3c(-c4ccc5nc(C)oc5c4)c[nH]c3n2)c(OC)c1 2.78

----------
# Test system: 876862-298-R-J1-PDC complex spheroids, viability % test/control
# experiment_description: Anticancer human tumor 876862-298-R-J1-PDC cell line growth inhibition [CLK];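 note: spheroids exposed to drugs for 7 days before readout; 100% = DMSO vehicle control wells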
# protocol_conditions: second compound 0.1 µM; first compound 0.00316 µM; active compounds read low
viability, T/C values, listed per item
Your answer should be a plain number; it is taken to be in %.

Before answering, review these 4 worked examples.
INSERT INTO assay_data (compound, measure, experimental_value) VALUES
  ('CCc1c2c(nc3ccc(O)cc13)-c1cc3c(c(=O)n1C2)COC(=O)[C@]3(O)CC + CNC(=O)c1ccc(Nc2nc(OC3CCCC3)c3c(-c4ccc5nc(C)oc5c4)c[nH]c3n2)c(OC)c1', 'viability, T/C', 16.5),
  ('COc1c(OCCCN2CCOCC2)ccc2c3n(c(=NC(=O)c4cnc(N)nc4)nc12)CCN3 + CN1CCN(c2cc(C(=O)Nc3cc4cc(-c5cnn(C)c5)ccc4cn3)ccn2)CC1', 'viability, T/C', 47.1),
  ('CCc1c2c(nc3ccc(O)cc13)-c1cc3c(c(=O)n1C2)COC(=O)[C@]3(O)CC + CN1CCN(c2cc(C(=O)Nc3cc4cc(-c5cnn(C)c5)ccc4cn3)ccn2)CC1', 'viability, T/C', 14.1),
  ('Cn1ncnc1[C@H]1c2n[nH]c(=O)c3cc(F)cc(c23)N[C@@H]1c1ccc(F)cc1 + CNC(=O)c1ccc(Nc2nc(OC3CCCC3)c3c(-c4ccc5nc(C)oc5c4)c[nH]c3n2)c(OC)c1', 'viability, T/C', 46.7);

// next item, viability, T/C requested
Supply measured viability, T/C of CCN1CCN(Cc2ccc(Nc3ncc(F)c(-c4cc(F)c5nc(C)n(C(C)C)c5c4)n3)nc2)CC1 + CNC(=O)c1ccc(Nc2nc(OC3CCCC3)c3c(-c4ccc5nc(C)oc5c4)c[nH]c3n2)c(OC)c1 in your reply. 46

----------
# Tested on: 876862-298-R-J1-PDC complex spheroids, viability % test/control
# experiment_description: Anticancer human tumor 876862-298-R-J1-PDC cell line growth inhibition [CLK];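 note: spheroids exposed to drugs for 7 days before readout; 100% = DMSO vehicle control wells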
# protocol_conditions: second compound 0.1 µM; first compound 0.00316 µM; active compounds read low
measure: viability, T/C (%)
Give your result in % as a bare value.

Past entries and their recorded results:
INSERT INTO results (molecule, measure, experimental_value) VALUES
  ('CCN1CCN(Cc2ccc(Nc3ncc(F)c(-c4cc(F)c5nc(C)n(C(C)C)c5c4)n3)nc2)CC1 + CN1CCN(c2cc(C(=O)Nc3cc4cc(-c5cnn(C)c5)ccc4cn3)ccn2)CC1', 'viability, T/C', 47),
  ('Cn1ncnc1[C@H]1c2n[nH]c(=O)c3cc(F)cc(c23)N[C@@H]1c1ccc(F)cc1 + CN1CCN(c2cc(C(=O)Nc3cc4cc(-c5cnn(C)c5)ccc4cn3)ccn2)CC1', 'viability, T/C', 44.7);

The record that follows has no viability, T/C shown yet.
Hello, please tell me recorded viability, T/C for this one: COc1c(OCCCN2CCOCC2)ccc2c3n(c(=NC(=O)c4cnc(N)nc4)nc12)CCN3 + CNC(=O)c1ccc(Nc2nc(OC3CCCC3)c3c(-c4ccc5nc(C)oc5c4)c[nH]c3n2)c(OC)c1 45.5

----------
# Tested on: 876862-298-R-J1-PDC complex spheroids, viability % test/control
# experiment_description: Anticancer human tumor 876862-298-R-J1-PDC cell line growth inhibition [CLK]; active means viability on the fitted dose curve at most 10% of control; inactive means the rest;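 note: spheroids exposed to drugs for 7 days before readout; 100% = DMSO vehicle control wells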
# protocol_conditions: second compound 1 µM; first compound 0.0316 µM
Bench note: report the call from true for active, false for inactive

Consider the following illustrative entries.
INSERT INTO assay_data (compound, target_entity, group) VALUES
  ('CCCS(=O)(=O)Nc1ccc(F)c(C(=O)c2c[nH]c3ncc(-c4ccc(Cl)cc4)cc23)c1F + CNC(=O)c1ccc(Nc2nc(OC3CCCC3)c3c(-c4ccc5nc(C)oc5c4)c[nH]c3n2)c(OC)c1', '876862-298-R-J1-PDC complex spheroids, viability % test/control', 'false'),
  ('CC(CO)NC(=O)c1cc(-c2ccc(Cl)cc2)nn(-c2cnn(C)c2)c1=O (stereo not given) + CNC(=O)c1ccc(Nc2nc(OC3CCCC3)c3c(-c4ccc5nc(C)oc5c4)c[nH]c3n2)c(OC)c1', '876862-298-R-J1-PDC complex spheroids, viability % test/control', 'false'),
  ('Nc1ccn(C2OC(CO)C(O)C2(F)F)c(=O)n1 (stereo not given) + CNC(=O)c1ccc(Nc2nc(OC3CCCC3)c3c(-c4ccc5nc(C)oc5c4)c[nH]c3n2)c(OC)c1', '876862-298-R-J1-PDC complex spheroids, viability % test/control', 'false');

Called result for CC(=O)O[C@H]1C(=O)[C@@]2(C)[C@H]([C@H](OC(=O)c3ccccc3)[C@]3(O)C[C@H](OC(=O)[C@H](O)[C@@H](NC(=O)c4ccccc4)c4ccccc4)C(C)=C1C3(C)C)[C@]1(OC(C)=O)CO[C@@H]1C[C@@H]2O + CN1CCN(c2cc(C(=O)Nc3cc4cc(-c5cnn(C)c5)ccc4cn3)ccn2)CC1 true

Query: recorded result category for CC1COCCN1c1cc(C2(S(C)(=N)=O)CC2)nc(-c2ccnc3[nH]ccc23)n1 (stereo not given) + CNC(=O)c1ccc(Nc2nc(OC3CCCC3)c3c(-c4ccc5nc(C)oc5c4)c[nH]c3n2)c(OC)c1 in this test false

Hi, sorry to bother you, what did the test record for COc1c(OCCCN2CCOCC2)ccc2c3n(c(=NC(=O)c4cnc(N)nc4)nc12)CCN3 + CN1CCN(c2cc(C(=O)Nc3cc4cc(-c5cnn(C)c5)ccc4cn3)ccn2)CC1 ? true

Hello, I am checking results. What call was entered for C=CC(=O)N1CCN(c2nc(=O)n(-c3c(C)ccnc3C(C)C)c3nc(-c4c(O)cccc4F)c(F)cc23)C(C)C1 (stereo not given) + CNC(=O)c1ccc(Nc2nc(OC3CCCC3)c3c(-c4ccc5nc(C)oc5c4)c[nH]c3n2)c(OC)c1 ? false

# lookup: test call for C=C(F)C(=O)N1CCN(c2nc(OCC3CCCN3C)nc3c2CCN(c2cccc4cccc(Cl)c24)C3)CC1CC#N (stereo not given) + CNC(=O)c1ccc(Nc2nc(OC3CCCC3)c3c(-c4ccc5nc(C)oc5c4)c[nH]c3n2)c(OC)c1 false

Which outcome was entered for the compound Nc1ccccc1NC(=O)c1ccc(CNC(=O)OCc2cccnc2)cc1 + CNC(=O)c1ccc(Nc2nc(OC3CCCC3)c3c(-c4ccc5nc(C)oc5c4)c[nH]c3n2)c(OC)c1 in this test? false

# fetch the recorded call for COc1cccc2c1C(=O)c1c(O)c3c(c(O)c1C2=O)CC(O)(C(=O)CO)CC3OC1CC(N)C(O)C(C)O1 (stereo not given) + CNC(=O)c1ccc(Nc2nc(OC3CCCC3)c3c(-c4ccc5nc(C)oc5c4)c[nH]c3n2)c(OC)c1 here false

----------
Reported viability, T/C values are given for each entry in this list.
# System: 876862-298-R-J1-PDC complex spheroids, viability % test/control
# experiment_description: Anticancer human tumor 876862-298-R-J1-PDC cell line growth inhibition [CLK];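 note: spheroids exposed to drugs for 7 days before readout; 100% = DMSO vehicle control wells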
# protocol_conditions: second compound 3.16 µM; first compound 0.0316 µM; active compounds read low
Just the number please, in %, no unit attached.

Consider the worked cases shown below.
INSERT INTO assay_data (compound, units_of_measure, experimental_value) VALUES
  ('Cn1ncnc1[C@H]1c2n[nH]c(=O)c3cc(F)cc(c23)N[C@@H]1c1ccc(F)cc1 + CN1CCN(c2cc(C(=O)Nc3cc4cc(-c5cnn(C)c5)ccc4cn3)ccn2)CC1', '%', 1.01),
  ('CC(=O)O[C@H]1C(=O)[C@@]2(C)[C@H]([C@H](OC(=O)c3ccccc3)[C@]3(O)C[C@H](OC(=O)[C@H](O)[C@@H](NC(=O)c4ccccc4)c4ccccc4)C(C)=C1C3(C)C)[C@]1(OC(C)=O)CO[C@@H]1C[C@@H]2O + CN1CCN(c2cc(C(=O)Nc3cc4cc(-c5cnn(C)c5)ccc4cn3)ccn2)CC1', '%', 0.93),
  ('Nc1ccn(C2OC(CO)C(O)C2(F)F)c(=O)n1 (stereo not given) + CNC(=O)c1ccc(Nc2nc(OC3CCCC3)c3c(-c4ccc5nc(C)oc5c4)c[nH]c3n2)c(OC)c1', '%', 10.5);

# next compound below
Identify viability, T/C associated with the compound CC1COCCN1c1cc(C2(S(C)(=N)=O)CC2)nc(-c2ccnc3[nH]ccc23)n1 (stereo not given) + CN1CCN(c2cc(C(=O)Nc3cc4cc(-c5cnn(C)c5)ccc4cn3)ccn2)CC1 0.98
